TARGET ENTITY: T1, Recombinant human CD4 (R&D Systems, Cat. 10327-CD) (human, UniProt P01730 26-390, limits assumed)
T1 construct: Bought protein; also called huCD4
ASSAY COMMENT: BLI (Octet Red384), purified antibody on anti-mouse Fc sensors, human CD4 100/50/25 nM, global 1:1 fit;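 note: antibodies loaded at 10 µg/mL, curves fitted across association and dissociation phases, with an unrelated mouse-derived antibody serving as internal reference control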
kon by entry:
Respond numerically; units are M⁻¹ s⁻¹ and should not be typed.

Before answering, review these 3 worked examples.
- 75110_14I16A (antibody, V domains shown, Tested as antibody purified from AlivaMab Mouse Kappa hybridoma (human V regions, kappa light chain, mouse Fc captured by anti-mouse Fc sensors); also called 75110_14116A) VH: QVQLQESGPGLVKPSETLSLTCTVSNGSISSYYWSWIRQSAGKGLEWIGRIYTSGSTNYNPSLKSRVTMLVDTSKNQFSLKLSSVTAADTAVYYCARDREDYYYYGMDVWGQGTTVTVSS VL: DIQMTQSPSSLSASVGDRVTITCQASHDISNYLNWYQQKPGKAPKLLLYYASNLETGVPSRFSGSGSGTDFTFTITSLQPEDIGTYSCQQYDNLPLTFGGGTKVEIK: 160000
- 75110_06C16A (antibody, V domains shown, Tested as antibody purified from AlivaMab Mouse Kappa hybridoma (human V regions, kappa light chain, mouse Fc captured by anti-mouse Fc sensors)) VH: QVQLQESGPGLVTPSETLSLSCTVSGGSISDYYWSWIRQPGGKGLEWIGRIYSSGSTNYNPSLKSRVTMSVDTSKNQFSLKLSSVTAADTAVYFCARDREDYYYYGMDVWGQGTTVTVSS VL: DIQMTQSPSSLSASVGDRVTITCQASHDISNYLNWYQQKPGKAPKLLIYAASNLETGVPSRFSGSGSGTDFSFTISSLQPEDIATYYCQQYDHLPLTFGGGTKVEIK: 75000
- 75110_07J24A (antibody, V domains shown, Tested as antibody purified from AlivaMab Mouse Kappa hybridoma (human V regions, kappa light chain, mouse Fc captured by anti-mouse Fc sensors); also called 75110_07124A) VH: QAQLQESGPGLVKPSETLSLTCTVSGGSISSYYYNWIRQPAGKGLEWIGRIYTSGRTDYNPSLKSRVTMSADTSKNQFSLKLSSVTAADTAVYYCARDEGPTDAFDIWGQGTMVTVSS VL: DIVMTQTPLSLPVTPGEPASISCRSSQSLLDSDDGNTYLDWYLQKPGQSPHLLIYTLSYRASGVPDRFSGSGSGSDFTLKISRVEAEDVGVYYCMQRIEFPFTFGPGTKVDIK: 85000

Could you please provide reported kon for 75110_08G08A (antibody, V domains shown, Tested as antibody purified from AlivaMab Mouse Kappa hybridoma (human V regions, kappa light chain, mouse Fc captured by anti-mouse Fc sensors)) VH: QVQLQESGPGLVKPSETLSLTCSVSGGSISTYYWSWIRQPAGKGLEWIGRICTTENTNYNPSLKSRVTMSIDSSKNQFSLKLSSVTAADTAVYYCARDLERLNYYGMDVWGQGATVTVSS VL: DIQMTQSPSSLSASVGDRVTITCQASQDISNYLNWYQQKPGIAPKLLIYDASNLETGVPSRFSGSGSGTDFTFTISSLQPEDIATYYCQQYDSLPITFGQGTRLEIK ? Thanks!
180000

Could you please provide reported kon for 75110_07B16A (antibody, V domains shown, Tested as antibody purified from AlivaMab Mouse Kappa hybridoma (human V regions, kappa light chain, mouse Fc captured by anti-mouse Fc sensors)) VH: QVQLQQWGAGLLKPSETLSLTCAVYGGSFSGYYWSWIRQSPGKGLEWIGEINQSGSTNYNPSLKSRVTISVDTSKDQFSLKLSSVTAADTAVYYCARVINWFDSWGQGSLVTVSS VL: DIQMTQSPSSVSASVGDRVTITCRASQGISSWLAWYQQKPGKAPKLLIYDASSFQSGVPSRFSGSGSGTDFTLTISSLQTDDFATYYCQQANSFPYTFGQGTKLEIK ? Thanks!
140000
